Where these numbers come from: patent US8492391B2

Target: CDK2/cyclin E (Homo sapiens, UniProt P24941)
Construct: made in house; host or cells: Sf9 insect cells, baculovirus co-infection
Test: CDK2/cyclin E kinase inhibition assay
Type: biochemical
Details: kinase inhibitory activity, 15 μM ATP, histone substrate
Could you please report measured IC50 for the items listed next?
Answers are plain numbers, in µM.

Solved cases (2 shown):
Recorded IC50 for CCC(CC)n1cnc2c(NCc3cc(Cl)ccc3O)nc(NC3CCCCC3N)nc21 (centres unmarked) , please?
0.08

Recorded IC50 for CCC(CO)Nc1nc(NCc2cccc(OC)c2O)c2ncn(C(C)C)c2n1 (racemic) , please?
0.07

Give measured IC50 for every item shown.
1. CCC(CO)Nc1nc(NCc2cc(F)ccc2O)c2ncn(C)c2n1 (centres unmarked)
2. CCC(CO)Nc1nc(NCc2cc(F)ccc2O)c2ncn(C(CC)CC)c2n1 (centres unmarked)
3. CCn1cnc2c(NCc3cc(C)ccc3O)nc(NC3CCCCC3N)nc21 (centres unmarked)
4. CC(C)C(CO)Nc1nc(NCc2cc(Cl)ccc2O)c2ncn(C)c2n1 (centres unmarked)
5. COc1cccc(CNc2nc(NC3CCC(O)CC3)nc3c2ncn3C(C)C)c1O (centres unmarked)
6. CCn1cnc2c(NCc3cccc(OC)c3O)nc(NC3CCC(N)CC3)nc21 (centres unmarked)

1. 0.3
2. 0.07
3. 0.12
4. 0.25
5. 0.05
6. 0.11
